Origin of values: patent US11130743B2

molecular target: PAR1 (Homo sapiens); construct: endogenous in cells; host or cells: EA.hy926 endothelial cells; assay: PAR1 (TFLLRN-NH2)-driven intracellular calcium mobilization (iCa2+) assay with Ea.hy926 cells; type: cell-based; details: EA.hy 926; 10 μM compound, 5 μM TFLLRN-NH2, adherent EA.hy926 endothelial cells, n=4 wells, ± SEM; read-out: iCa2+ assay % Inhib
Sequence (P25116 22-425): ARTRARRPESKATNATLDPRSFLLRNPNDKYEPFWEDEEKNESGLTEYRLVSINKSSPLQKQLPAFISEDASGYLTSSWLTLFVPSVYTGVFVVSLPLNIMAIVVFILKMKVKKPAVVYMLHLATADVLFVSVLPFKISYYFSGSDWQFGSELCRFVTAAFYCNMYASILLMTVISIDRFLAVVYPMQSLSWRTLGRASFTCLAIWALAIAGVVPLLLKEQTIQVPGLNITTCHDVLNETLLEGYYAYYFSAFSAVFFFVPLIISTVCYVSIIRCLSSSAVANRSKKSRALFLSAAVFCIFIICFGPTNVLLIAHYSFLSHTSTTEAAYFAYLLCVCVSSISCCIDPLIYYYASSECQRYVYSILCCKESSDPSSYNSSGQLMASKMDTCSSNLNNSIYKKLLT
value.kind: inhibition at 10 µM (%)

>>> obs_value("O=C(Nc1cccc(NC(=O)c2ccccc2Br)c1)c1cncs1 [Compound 8]")
56
>>> obs_value("O=C(Nc1cccc(NC(=O)c2ccccc2Br)c1)c1cnco1 [Compound 5]")
59
>>> obs_value("O=C(Nc1cccc(NC(=O)c2ccccc2Br)c1)c1cocn1 [Compound 6]")
82
>>> obs_value("O=C(Nc1cccc(NC(=O)c2ccccc2Br)c1)c1ccoc1 [Compound 9]")
97
>>> obs_value("O=C(Nc1cccc(NC(=O)C2CCOC2)c1)c1ccccc1Br (stereo not shown) [Compound 11]")
44

A: O=C(Nc1cccc(NC(=O)C2CCCO2)c1)c1ccccc1Br (stereo not shown) [Compound 10]
B: O=C(Nc1cccc(NC(=O)c2ccccc2Cl)c1)c1cnco1 [Compound 7]
Task: For the pair A and B , which entry has the numerically smaller recorded inhibition at 10 µM? Mark your answer with the label of the selected entry.
Result: A

###

assay: kinetic aqueous solubility assay; assay type: physicochemical; conditions: aqueous solution with 2.5% DMSO
value.kind: solubility (µM)
The reply should contain only the number, in µM.

Task: Retrieve solubility measured for O=C(Nc1cccc(NC(=O)c2ccccc2Br)c1)c1cnco1 and print it.
Result: 17
